All values here come from ChEMBL document CHEMBL1132573.

Please go through the items and note down their IC50.
- System: WiDr
- runDescription: Inhibition of cell growth in drug sensitive WiDr colon cell line
- Type: functional, cell-based
- conditionNotes: Homo sapiens
Output spec: scalar in µM, unitless text.

Entry under test: N#CC1CN1C(=O)Nc1ccc([N+](=O)[O-])cc1 (stereo not given) . Its IC50 was 4.3

Entry under test: COC(=O)c1ccccc1NC(=O)N1CC1C#N (stereo not given) . Its IC50 was 40

Entry under test: N#CC1CN1C(=O)Nc1cccc2ccccc12 (stereo not given) . Its IC50 was 2.4

Entry under test: N#CC1CN1C(=O)NC1CCCCC1 (stereo not given) . Its IC50 was 2.4

Entry under test: N#CC1CN1C(=O)Nc1ccc(Cl)cc1Cl (stereo not given) . Its IC50 was 2.2

Entry under test: N#CC1CN1C(=O)Nc1ccccc1 (stereo not given) . Its IC50 was 5

Entry under test: N#CC1CN1C(=O)Nc1ccc(Cl)c(Cl)c1 (stereo not given) . Its IC50 was 7

Entry under test: N#CC1CN1C(=O)Nc1ccc(F)cc1 (stereo not given) . Its IC50 was 2.1

Entry under test: N#CC1CN1C(=O)NCc1ccccc1 (stereo not given) . Its IC50 was 5.3

* * *

- Test system: MCF7
- runDescription: Inhibition of cell growth in drug sensitive MCF-7 breast cell line
- Format: functional, cell-based
- conditionNotes: Homo sapiens
pIC50: −log10 of the molar value.
Label met when pIC50 is at or above 5; otherwise label not met.

Tell me whether pIC50 is at least 5 here: CCCCNC(=O)N1CC1C#N (stereo not given)
not met

Tell me whether pIC50 is at least 5 here: CCNC(=O)N1CC1C#N (stereo not given)
not met

Tell me whether pIC50 is at least 5 here: N#CC1CN1C(=O)Nc1ccc([N+](=O)[O-])cc1 (stereo not given)
met

Tell me whether pIC50 is at least 5 here: N#CC1CN1C(=O)Nc1ccc(F)cc1 (stereo not given)
met

Tell me whether pIC50 is at least 5 here: N#CC1CN1C(=O)Nc1ccc(Cl)c(Cl)c1 (stereo not given)
met

Tell me whether pIC50 is at least 5 here: CC(C)(C)NC(=O)N1CC1C#N (stereo not given)
not met

Tell me whether pIC50 is at least 5 here: CNC(=O)N1CC1C#N (stereo not given)
not met

Tell me whether pIC50 is at least 5 here: N#CC1CN1C(=O)Nc1ccc(C(F)(F)F)cc1 (stereo not given)
met

* * *

- Test system: OVCAR-3
- runDescription: Inhibition of cell growth in (OVCAR-3) ovarian cell line
- Format: functional, cell-based
- conditionNotes: Homo sapiens
Label condition met when IC50 is strictly below 7 µM; otherwise label condition not met.

Answer whether the molecule N#CC1CN1C(N)=O (stereo unspecified) has IC50 strictly less than 7 µM
condition not met

Answer whether the molecule N#CC1CN1C(=O)Nc1ccc([N+](=O)[O-])cc1 (stereo unspecified) has IC50 strictly less than 7 µM
condition met

Answer whether the molecule N#CC1CN1C(=O)Nc1ccc(C(F)(F)F)cc1 (stereo unspecified) has IC50 strictly less than 7 µM
condition met

Answer whether the molecule N#CC1CN1C(=O)Nc1ccc(S(N)(=O)=O)cc1 (stereo unspecified) has IC50 strictly less than 7 µM
condition not met

Answer whether the molecule CC(C)(C)NC(=O)N1CC1C#N (stereo unspecified) has IC50 strictly less than 7 µM
condition not met

Answer whether the molecule CCCCNC(=O)N1CC1C#N (stereo unspecified) has IC50 strictly less than 7 µM
condition not met

Answer whether the molecule N#CC1CN1C(=O)NC1CCCCC1 (stereo unspecified) has IC50 strictly less than 7 µM
condition not met

Answer whether the molecule COC(=O)c1ccccc1NC(=O)N1CC1C#N (stereo unspecified) has IC50 strictly less than 7 µM
condition not met

Answer whether the molecule CCOC(=O)c1ccc(NC(=O)N2CC2C#N)cc1 (stereo unspecified) has IC50 strictly less than 7 µM
condition not met

Answer whether the molecule CC(=O)c1cccc(NC(=O)N2CC2C#N)c1 (stereo unspecified) has IC50 strictly less than 7 µM
condition not met
